# System: SF-268 CNS
# test: NCI-60 one-dose screen, 48 h (100 = growth as untreated, 0 = no growth, -100 = all killed)
# recorded.conditions: 10 µM unless noted
The panel holds about 83,000 compounds, 20% with a hit somewhere; the sample as a whole holds those more often.
growth listing for selected molecules.
// return numeric value only (unit: %, not printed)

// known answers, use as guide
molecule="Nc1n[nH]c2ccc([C@@H]3Nc4c(F)cc5[nH]ncc5c4[C@H]4C5CCC(C5)[C@@H]34)cc12 (some centres undefined)" measured_quantity=growth recorded_value=36.1
molecule=Fc1ccc(-c2ccnc3nc(-c4ccncc4)nn23)cc1 measured_quantity=growth recorded_value=97.1
molecule=O=C1/C(=C\c2cccn2C(=O)c2ccccc2)c2ccccc2N1c1c(Cl)cccc1Cl measured_quantity=growth recorded_value=66.9
molecule=C=C(CN1CC=CCC1)[C@@H]1CC[C@]2(C(=O)OC)CC[C@]3(C)[C@H](CC[C@@H]4[C@@]5(C)CC[C@H](OC(C)=O)C(C)(C)[C@@H]5CC[C@]43C)[C@@H]12 measured_quantity=growth recorded_value=92.5

# input for lookup
Query: Suppose we examine the molecule Cc1cc(NC(=O)c2ccc(N)cc2)ccc1N=Nc1ccc2cc(S(=O)(=O)O)cc(S(=O)(=O)O)c2c1 ; what growth value has been reported?
Result: 115

###

# System: HCC-2998 colon
# test: NCI-60 one-dose screen, 48 h (100 = growth as untreated, 0 = no growth, -100 = all killed)
# recorded.conditions: 10 µM unless noted
# Method: Growth inhibition of the HCC-2998 human tumor cell line is measured as a screen for anti-cancer activity. Cells are grown in 96 well plates and exposed to the test compound for 48 hours. Compounds are tested at a single concentration, which is 10^-5 M for most compounds. The reported endpoint is percent growth (GI% or GIPRCNT), where numbers from 0 - 100% represent growth inhibition, and numbers from -100% - 0 represent cell death. For example, a value of 40 represents 60% growth inhibition. […]
The panel holds about 83,000 compounds, 20% with a hit somewhere; the sample as a whole holds those more often.
Decision: growth beneath 90% gives condition met; growth meeting or exceeding 90% gives condition not met.

compound=Clc1ccc(Nc2ncnc3c2sc2ncccc23)c(Cl)c1 measurement_target="HCC-2998 colon" class_name="condition met"
compound=O=C(/C=C/c1cccc([N+](=O)[O-])c1)c1ccc(Nc2nc(N3CCCCC3)nc(N3CCCCC3)n2)cc1 measurement_target="HCC-2998 colon" class_name="condition met"
compound=Nc1ccc(N(O)/C=C2\C=CC=CC2=O)cc1N measurement_target="HCC-2998 colon" class_name="condition not met"

Query: Find out if reported growth for Cc1ccc(S(=O)(=O)NC(CCC(=O)Nc2ccc(Cl)cc2)C(=O)Nc2ccc(Cl)cc2)cc1 (stereo unspecified) is less than 90%
Result: condition met

Query: Hello, is growth of the following compound strictly smaller than 90%? Cc1c(-c2ccc(-c3ccccc3F)cc2)nc2ccc(F)cc2c1C(=O)O
Result: condition met

Query: Identify whether the compound COc1ccc(-c2nsc3c2NC(=O)CC3c2cccc(F)c2)cc1 (stereo unspecified) records growth below 90%.
Result: condition met

Query: Consider the compound c1ccc(C2=Nc3ccccc3SC2)cc1 . Is its growth strictly less than 90%?
Result: condition not met

Query: Determine whether this compound shows growth lower than 90% (ties excluded): COc1ccc(-n2nc(C(=O)NCC(=O)Nc3nc4cc(OC)ccc4s3)c3ccccc3c2=O)cc1
Result: condition met

Query: Is it true that growth reported for CC1(C)C2CCC(O)(C(=O)O)C1C2 (stereo unspecified) is less than 90%?
Result: condition not met

// provenance: PubChem BioAssay (NCI)
